Where these numbers come from: patent US6972319B1

# measured target: T1, PACAP-R3 (human, UniProt P41587 24-438)
# T1 sequence (looked up): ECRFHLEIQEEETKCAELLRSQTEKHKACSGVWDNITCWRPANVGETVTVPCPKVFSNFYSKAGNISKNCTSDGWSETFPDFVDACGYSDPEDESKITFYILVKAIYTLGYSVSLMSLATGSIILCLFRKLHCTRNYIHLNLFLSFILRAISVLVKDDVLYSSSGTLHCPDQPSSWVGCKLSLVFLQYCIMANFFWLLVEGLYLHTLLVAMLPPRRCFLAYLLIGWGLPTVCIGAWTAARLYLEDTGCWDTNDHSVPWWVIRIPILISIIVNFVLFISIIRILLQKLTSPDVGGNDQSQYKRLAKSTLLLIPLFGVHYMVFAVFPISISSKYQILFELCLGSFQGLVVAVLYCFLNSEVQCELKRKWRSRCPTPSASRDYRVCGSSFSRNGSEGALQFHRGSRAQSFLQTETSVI
# procedure text: cell-based or functional assay
No end group written: not given here.
Entries and their R3 Selectivity values follow.

{"binder": "HSDGIFTDSYSRYRKQMAVKKYKAAVL-NH2 [PAC23]", "R3 Selectivity": "13 ratio"}
{"binder": "HSDGIFTDSYSRYRKQMAVEKYLAAVL-NH2 [PAC20]", "R3 Selectivity": "30 ratio"}
{"binder": "HSDGIFTDSYSRYEKQMAVKKYLAAVL-NH2 [PAC14]", "R3 Selectivity": "70 ratio"}
